Target: NS5 capping enzyme WT (yellow fever) (Yellow fever virus, UniProt P03314 2507-2774)
Sequence (P03314 2507-2774): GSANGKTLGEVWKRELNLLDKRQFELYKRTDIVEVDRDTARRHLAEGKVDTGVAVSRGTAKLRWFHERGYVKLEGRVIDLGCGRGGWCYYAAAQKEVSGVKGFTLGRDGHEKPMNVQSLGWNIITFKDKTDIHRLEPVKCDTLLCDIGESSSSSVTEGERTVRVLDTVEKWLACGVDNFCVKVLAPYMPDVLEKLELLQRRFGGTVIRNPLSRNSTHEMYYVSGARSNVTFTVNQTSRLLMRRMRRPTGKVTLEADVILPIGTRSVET
Assay: fluorescence polarization
Conditions: protein: recombinant; label: 3' FAM
readout-kind: Kd (nM)
State the answer as a number, implicitly in nM.

Which Kd value is on record for AGUAA (ssRNA, 5' diphosphate) [ppAGUAA-FAM] ? 420
